These measurements were taken from ChEMBL document CHEMBL3877262.

protocol.notes: Antioxidant activity assessed as ABTS radical scavenging activity measured after 10 mins by ABTS assay
Assay type: functional
Reported EC50 values for a set of compounds

{"compound": "CC1(C)C=Cc2c(O)c(Cc3c(O)c4c(c(C(=O)/C=C/c5ccc(O)c(O)c5O)c3O)OC(C)(C)C=C4)c(O)c(C(=O)/C=C/c3ccc(O)c(O)c3O)c2O1", "EC50 / nM": 540}
{"compound": "O=C(O)c1cc(O)c(O)c(O)c1 [GALLIC ACID]", "EC50 / nM": 350}
